biological target: h-5-HT6 receptor (Homo sapiens, UniProt P50406); construct: expressed in transfected cells; host or cells: HEK293 cells (membrane preparation); assay: Human 5-HT6 receptor radioligand binding assay ([3H]-LSD, HEK293 membranes); conditions: HEK293 membranes, 1 nM [3H]-lysergic acid diethylamide, 3.5 hours at room temperature; read-out: Ki (μM), 5-HT6 Agonist Site Radioligand Binding
Sequence (P50406 whole entry): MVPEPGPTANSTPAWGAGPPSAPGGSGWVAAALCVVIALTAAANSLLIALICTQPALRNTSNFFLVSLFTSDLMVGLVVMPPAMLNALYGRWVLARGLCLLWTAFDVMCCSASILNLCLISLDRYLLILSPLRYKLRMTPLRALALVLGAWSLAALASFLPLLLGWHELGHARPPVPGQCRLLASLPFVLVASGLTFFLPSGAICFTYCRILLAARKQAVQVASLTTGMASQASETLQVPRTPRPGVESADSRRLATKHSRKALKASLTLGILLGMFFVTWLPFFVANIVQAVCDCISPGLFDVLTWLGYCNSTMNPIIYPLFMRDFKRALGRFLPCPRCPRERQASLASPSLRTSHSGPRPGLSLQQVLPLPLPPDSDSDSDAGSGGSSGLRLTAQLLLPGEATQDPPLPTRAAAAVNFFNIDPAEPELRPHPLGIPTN
Give Ki for every item shown.
Your answer is read as µM, so omit the unit and give the number.

Fill in the blank: the reported Ki of O=C1CC2CNCCN2c2ccc(NS(=O)(=O)c3cccc(F)c3)cc2N1 (stereo not drawn) is ____. 0.0596

Fill in the blank: the reported Ki of O=C1CC2CNCCN2c2ccc(NS(=O)(=O)c3ccccc3F)cc2N1 (stereo not drawn) is ____. 0.0299

Fill in the blank: the reported Ki of COc1cccc(S(=O)(=O)Nc2ccc3c(c2)NC(=O)CC2CNCCN32)c1 (stereo not drawn) is ____. 0.022

Fill in the blank: the reported Ki of O=C1CC2CNCCN2c2ccc(NS(=O)(=O)c3c(Cl)cccc3Cl)cc2N1 (stereo not drawn) is ____. 0.0378

Fill in the blank: the reported Ki of O=C1CC2CNCCN2c2ccc(NS(=O)(=O)c3ccccc3)cc2N1 (stereo not drawn) is ____. 0.025

Fill in the blank: the reported Ki of O=C1CC2CNCCN2c2ccc(NS(=O)(=O)c3ccc(Cl)cc3)cc2N1 (stereo not drawn) is ____. 0.0092

Fill in the blank: the reported Ki of O=C1CC2CNCCN2c2ccc(NS(=O)(=O)c3c(F)cccc3F)cc2N1 (stereo not drawn) is ____. 0.0583

Fill in the blank: the reported Ki of O=C1CC2CNCCN2c2ccc(NS(=O)(=O)c3ccccc3-c3ccccc3)cc2N1 (stereo not drawn) is ____. 0.0024

Fill in the blank: the reported Ki of O=C1NCC2CN(Cc3ccccc3)CCN2c2ccc(NS(=O)(=O)c3ccccc3)cc21 (stereo not drawn) is ____. 0.821
